# TESTED_SYSTEM: Angiotensin II receptor (Rattus norvegicus) (UniProt P29089+P25095+P35351)
# METHOD: Evaluated for its agonistic activity using rat uterus bioassay in Dawley rats (% of ANG II)
# Format: functional, tissue-based
Quick rule for you: Agonist activity under 60 gets fulfilled, anything else gets not fulfilled.

Use these answered entries as a reference point.
[
  {
    "COMPOUND": "CC[C@H](C)[C@H](NC(=O)[C@H](Cc1ccc(O)cc1)NC(=O)[C@@H](NC(=O)[C@H](CCCN=C(N)N)NC(=O)C(C)(C)N)C(C)C)C(=O)N[C@@H](Cc1c[nH]cn1)C(=O)N1CCCC[C@@H]1C(=O)N[C@@H](Cc1ccccc1)C(=O)O",
    "TESTED_SYSTEM": "Angiotensin II receptor (Rattus norvegicus) (UniProt P29089+P25095+P35351)",
    "CLASS_ASSIGNMENT": "not fulfilled"
  },
  {
    "COMPOUND": "CC[C@H](C)[C@H](NC(=O)[C@H](Cc1ccc(O)cc1)NC(=O)[C@@H](NC(=O)[C@H](CCCN=C(N)N)NC(=O)CNC)C(C)C)C(=O)N[C@@H](Cc1c[nH]cn1)C(=O)N1CCC1C(=O)N[C@@H](Cc1ccccc1)C(=O)O (stereo partly specified)",
    "TESTED_SYSTEM": "Angiotensin II receptor (Rattus norvegicus) (UniProt P29089+P25095+P35351)",
    "CLASS_ASSIGNMENT": "not fulfilled"
  },
  {
    "COMPOUND": "CC[C@H](C)[C@H](NC(=O)[C@H](Cc1ccc(O)cc1)NC(=O)[C@@H](NC(=O)[C@H](CCCN=C(N)N)NC(=O)CNC)C(C)C)C(=O)N[C@@H](Cc1c[nH]cn1)C(=O)N1CCCC[C@@H]1C(=O)N[C@@H](Cc1ccccc1)C(=O)O",
    "TESTED_SYSTEM": "Angiotensin II receptor (Rattus norvegicus) (UniProt P29089+P25095+P35351)",
    "CLASS_ASSIGNMENT": "not fulfilled"
  }
]

Take the compound CC[C@@H](C)[C@H](NC(=O)C1CCN1C(=O)[C@H](Cc1c[nH]cn1)NC(=O)[C@@H](NC(=O)[C@H](Cc1ccc(O)cc1)NC(=O)[C@@H](NC(=O)[C@H](CCCN=C(N)N)NC(=O)CNC)C(C)C)[C@@H](C)CC)C(=O)O (stereo partly specified) and say whether its Agonist activity is less than 60.
fulfilled

Take the compound CC[C@@H](C)[C@H](NC(=O)C1CCN1C(=O)[C@H](Cc1c[nH]cn1)NC(=O)[C@@H](NC(=O)[C@H](Cc1ccc(O)cc1)NC(=O)[C@@H](NC(=O)[C@H](CCCN=C(N)N)NC(=O)C(C)(C)N)C(C)C)[C@@H](C)CC)C(=O)O (stereo partly specified) and say whether its Agonist activity is less than 60.
fulfilled

Take the compound "CC[C@@H](C)[C@H](NC(=O)[C@H]1CCCCN1C(=O)[C@H](Cc1c[nH]cn1)NC(=O)[C@@H](NC(=O)[C@H](Cc1ccc(O)cc1)NC(=O)[C@@H](NC(=O)[C@H](CCCN=C(N)N)NC(=O)C(C)(C)N)C(C)C)[C@@H](C)CC)C(=O)O" and say whether its Agonist activity is less than 60.
fulfilled

Take the compound "CC[C@@H](C)[C@H](NC(=O)[C@H]1CCCCN1C(=O)[C@H](Cc1c[nH]cn1)NC(=O)[C@@H](NC(=O)[C@H](Cc1ccc(O)cc1)NC(=O)[C@@H](NC(=O)[C@H](CCCN=C(N)N)NC(=O)CNC)C(C)C)[C@@H](C)CC)C(=O)O" and say whether its Agonist activity is less than 60.
fulfilled

Take the compound "CC[C@H](C)[C@H](NC(=O)[C@@H]1CCCN1C(=O)[C@H](Cc1c[nH]cn1)NC(=O)[C@@H](NC(=O)[C@H](Cc1ccc(O)cc1)NC(=O)[C@@H](NC(=O)[C@H](CCCN=C(N)N)NC(=O)CNC)C(C)C)[C@@H](C)CC)C(=O)O" and say whether its Agonist activity is less than 60.
fulfilled

Take the compound CC[C@H](C)[C@H](NC(=O)[C@H](Cc1ccc(O)cc1)NC(=O)[C@@H](NC(=O)[C@H](CCCN=C(N)N)NC(=O)C(C)(C)N)C(C)C)C(=O)N[C@@H](Cc1c[nH]cn1)C(=O)N1CCC1C(=O)N[C@@H](Cc1ccccc1)C(=O)O (stereo partly specified) and say whether its Agonist activity is less than 60.
fulfilled

Take the compound CC[C@H](C)[C@H](NC(=O)[C@H](Cc1ccc(O)cc1)NC(=O)[C@@H](NC(=O)[C@@H](N)CCCN=C(N)N)C(C)C)C(=O)N[C@@H](Cc1c[nH]cn1)C(=O)N1CCC1C(=O)N[C@@H](Cc1ccccc1)C(=O)O (stereo partly specified) and say whether its Agonist activity is less than 60.
fulfilled

Take the compound "CC[C@H](C)[C@H](NC(=O)[C@H](Cc1ccc(O)cc1)NC(=O)[C@@H](NC(=O)[C@H](CCCN=C(N)N)NC(=O)CNC)C(C)C)C(=O)N[C@@H](Cc1c[nH]cn1)C(=O)N1CCC[C@H]1C(=O)N[C@@H](Cc1ccccc1)C(=O)O" and say whether its Agonist activity is less than 60.
not fulfilled
